Experiment: drug combination growth inhibition, ovarian cancer – cell-based, oncology-focused library, rucaparib conditional, profiling panel (AID 1508598)
Conditions: patient-derived ovarian cancer cells, CellTiter-Glo viability, 144 h; at 0.313 µM; OCI-C5x cells; with rucaparib 10 µM; hits give low values; 100% = cells with rucaparib alone
*1 amine or outer side, *2 acyl side, *3 side chain or, on linkers, in order; H or OH if unused. Where a SMILES comes first, the peptide text is derived from it. Bridges are numbered along the chain shown (N, C = ends). Roman numbers before positions name the chains, in order. [ ]: non-standard residue; d: D form. Hexamethylenediamine = C(CCCN[*:2])CCN[*:1]; Dip = N[C@H](C(=O)O)C(c1ccccc1)c1ccccc1; Chg = N[C@H](C(=O)O)C1CCCCC1; NMeA = CN[C@@H](C)C(=O)O
Metric Name: viability (%)
Record the value in %, omitting the unit from your answer.

Sample records with viability:
# Compound, Value Unit, Assay Result
measured = [
    ("CCOc1ccc(Cc2cc([C@@H]3O[C@H](CO)[C@@H](O)[C@H](O)[C@@H]3O)ccc2Cl)cc1", "%", 112),
    ("CC(=O)OCC(=O)[C@]1(O)[C@H](C)C[C@H]2[C@@H]3CCC4=CC(=O)C=C[C@]4(C)[C@]3(F)[C@H](O)C[C@@]21C", "%", 113),
    ("CN[C@@H](C)C(=O)N[C@H](C(=O)N1CCC[C@H]1C(=O)N[C@H](C(=O)NCCCCCCNC(=O)[C@@H](NC(=O)[C@@H]1CCCN1C(=O)[C@@H](NC(=O)[C@H](C)NC)C1CCCCC1)C(c1ccccc1)c1ccccc1)C(c1ccccc1)c1ccccc1)C1CCCCC1 (I: H-[NMeA][Chg]P[Dip] / II: H-[NMeA][Chg]P[Dip]; linker I:C-II:C via Hexamethylenediamine)", "%", 114),
    ("C=C1/C(=C/C=C2\\CCC[C@@]3(C)[C@H]2CC[C@H]3[C@H](C)/C=C/[C@@H](C)C(C)C)C[C@H](O)C[C@@H]1O", "%", 96.7),
    ("Cc1ccc(NC(=O)c2ccc(CN3CCN(C)CC3)cc2)cc1Nc1nc(-c2cccnc2)cs1", "%", 113),
]

State the recorded viability for this entry: COc1cc(C(=O)NC2CCN(C)CC2)ccc1Nc1ncc2c(n1)N(C1CCCC1)CC(F)(F)C(=O)N2C 39.9

State the recorded viability for this entry: CC(C)(C)C(=O)Nc1ccc2c(c1)C(=O)C(=O)c1ccccc1-2 81.1

State the recorded viability for this entry: C[C@H]1C[C@H]2[C@@H]3CCC4=CC(=O)C=C[C@]4(C)[C@@H]3C(=O)C[C@]2(C)[C@]1(O)C(=O)CO 111
